Measured average serum content of SGPT accompanies every entry in the list below.
tested on: Female SA rats; experiment: liver toxicity, serum SGOT, SGPT and total bilirubin; format: in vivo, rat; parameters: unit not given here; conditions: 2 x 37.5 μmol/kg i.v. infusion (total 75 μmol/kg), 12 h after second dose
Structures can show the parent of a compound that is named as a salt.
Please reply with the number alone, leaving off any unit.

Example entries begin here.
Compound: O[C@@H]1[C@H](O)CO[C@H]1n1cc(-c2ccc(F)cc2)c2c(Nc3ccc(F)cc3)ncnc21
average serum content of SGPT: 30

Compound: OCC1(CO)O[C@@H](n2cc(-c3ccccc3)c3c(Nc4ccccc4)ncnc32)[C@H](O)[C@@H]1O
average serum content of SGPT: 53

Compound: O[C@H]1[C@H](n2cc(-c3ccccc3)c3c(Nc4ccc(F)cc4)ncnc32)OC2(CC2)[C@H]1O
average serum content of SGPT: 155

Compound: O[C@@H]1[C@H](O)CO[C@H]1n1cc(-c2ccccc2)c2c(Nc3ccc(CCN4CCNCC4)cc3)ncnc21 [#43, trihydrochloride salt]
average serum content of SGPT: 58

Compound: O[C@@H]1[C@H](O)CO[C@H]1n1cc(-c2ccccc2)c2c(Nc3ccc(F)cc3)ncnc21
average serum content of SGPT: 23

Now for the compound whose average serum content of SGPT we want.
Prompt: Using the record for O[C@@H]1[C@H](O)CO[C@H]1n1cc(-c2ccccc2)c2c(Nc3ccccc3)ncnc21 , report its average serum content of SGPT.
Completion: 41

----------
Molecular target: adenosine kinase
Assay: adenosine kinase (AK) inhibition
Format: biochemical, pig heart or recombinant human
Conditions: 0.5 μM [U-14C] adenosine, pH 7.0, 20 minutes
Protocol: Adenosine kinase activity was measured essentially as described by Yamada et al. (Yamada, Y., Goto, H., Ogasawara, N. (1988) Biochim. Biophys. Acta 660, 36-43.) with a few minor modifications. […] Natl. Acad. Sci. […] The reactions were incubated for 20 minutes at […] The assay was quenched upon spotting 30 μL aliquots onto 2 cm^2 pieces of Whatman DE81 anion exchange paper. […] The amount of ^14 C-AMP was quantified by scintillation counting.
Measured attribute: IC50 (nM)
Quick reminder: number only, in nM, skip the unit.

Example entries begin here.
Molecule: NC[C@]1(CO)O[C@@H](n2cc(-c3ccccc3)c3c(Nc4ccc(F)cc4)ncnc32)[C@H](O)[C@@H]1O [compound 392]
IC50 (nM): 1100
//
Molecule: Nc1ncnc2c1c(I)cn2[C@@H]1OC2(CC2)[C@@H](O)[C@H]1O [compound 175]
IC50 (nM): 600
//
Molecule: CN(C)Cc1ccc(Nc2ncnc3c2c(-c2ccccc2)cn3[C@@H]2O[C@@](C)(CO)[C@@H](O)[C@H]2O)cc1 [compound 64]
IC50 (nM): 70

Now for the molecule whose IC50 we want.
Prompt: Using the record for COC[C@]1(CO)O[C@@H](n2cc(-c3ccccc3)c3c(Nc4ccc(F)cc4)ncnc32)[C@H](O)[C@@H]1O [compound 352] , report its IC50.
Completion: 400

----------
tested on: Female SA rats; experiment: liver toxicity, serum SGOT, SGPT and total bilirubin; assay type: in vivo, rat; parameters: unit not given here; settings: 2 x 37.5 μmol/kg i.v. infusion (total 75 μmol/kg), 12 h after second dose
hey, just use YES if measured average serum Total Bilirubin is less than 0.1, otherwise NO

Prompt: Item O[C@@H]1[C@H](O)CO[C@H]1n1cc(-c2ccccc2)c2c(Nc3ccc(F)cc3)ncnc21 : average serum Total Bilirubin beneath 0.1, strictly?
Completion: YES

Prompt: Item O[C@@H]1[C@H](O)CO[C@H]1n1cc(-c2ccccc2)c2c(Nc3ccccc3)ncnc21 : average serum Total Bilirubin beneath 0.1, strictly?
Completion: NO

Prompt: Item O[C@@H]1[C@H](O)CO[C@H]1n1cc(-c2ccc(F)cc2)c2c(Nc3ccc(F)cc3)ncnc21 : average serum Total Bilirubin beneath 0.1, strictly?
Completion: NO

Prompt: Item O[C@H]1[C@H](n2cc(-c3ccccc3)c3c(Nc4ccc(F)cc4)ncnc32)OC2(CC2)[C@H]1O : average serum Total Bilirubin beneath 0.1, strictly?
Completion: NO
